Target: hGIPR (Homo sapiens, UniProt P48546)
Sequence (P48546 22-466): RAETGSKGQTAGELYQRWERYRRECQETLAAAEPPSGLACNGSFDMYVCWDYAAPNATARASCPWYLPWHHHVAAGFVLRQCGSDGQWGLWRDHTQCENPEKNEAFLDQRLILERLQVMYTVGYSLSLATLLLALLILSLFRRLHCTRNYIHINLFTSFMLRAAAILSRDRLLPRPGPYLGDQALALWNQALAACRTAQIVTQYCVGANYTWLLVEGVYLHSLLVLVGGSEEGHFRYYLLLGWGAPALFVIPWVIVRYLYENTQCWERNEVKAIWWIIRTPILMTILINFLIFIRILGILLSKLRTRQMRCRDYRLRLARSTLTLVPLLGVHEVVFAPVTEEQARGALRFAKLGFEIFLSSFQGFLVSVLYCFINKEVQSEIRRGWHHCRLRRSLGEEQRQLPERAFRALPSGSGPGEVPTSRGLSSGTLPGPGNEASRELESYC
Assay: Functional cAMP activity in the presence of 1% HSA
Format: cell-based
Settings: read-out: cAMP Rel EC50, hGIPR
Starred links: 1 amine or outer side, 2 acyl side, 3 side chain; linkers in the order of their positions; H or OH if unused. Non-standard residues stand in square brackets, D forms with d. Groups on a side chain read outwards from the residue. No end group written: not given here. *: point of attachment. C20 diacid = O=C(O)CCCCCCCCCCCCCCCCCCC(=O)*; C18 diacid = O=C(O)CCCCCCCCCCCCCCCCC(=O)*; αMePhe(2-F) = C[C@](N)(Cc1ccccc1F)C(=O)O; γGlu = O=C(O)[C@H](CCC(=O)[*:2])N[*:1]; αMe4Pal = C[C@](N)(Cc1ccncc1)C(=O)O; αMeY = C[C@](N)(Cc1ccc(O)cc1)C(=O)O; αMeF = C[C@](N)(Cc1ccccc1)C(=O)O; 4Pal = N[C@@H](Cc1ccncc1)C(=O)O; αMeL = CC(C)C[C@](C)(N)C(=O)O; αMeS = C[C@](N)(CO)C(=O)O; Orn = NCCC[C@H](N)C(=O)O; AEEA = NCCOCCOCC(=O)O; Aib = CC(C)(N)C(=O)O
result_type: EC50 (nM)

substance	numeric_readout
H-Y[Aib]QGTFTSD[4Pal]SK[αMeL]LDKK([AEEA-γGlu-C18 diacid])AQ[Aib]AFIE[αMe4Pal]LIE[Aib]GPSSGAPPPSGS-NH2 [Example 914]	5.94
H-Y[Aib]QGT[αMePhe(2-F)]TSD[4Pal][αMeS]I[αMeL]LD[Orn]K([γGlu-γGlu-C18 diacid])AQ[αMe4Pal]EFI[dE][αMeY]LVEGGPSSGEPPPSGE-NH2 [Example 1161]	0.733
H-Y[Aib]QGTFTSDFSK[αMeL]LDKK([AEEA-γGlu-C20 diacid])AQ[Aib]AFIEYLLE[Aib]GPSSGAPPPSGS-NH2 [Example 45]	33.4
H-Y[Aib]QGTFTSDFSK[αMeL]LDKK([AEEA-γGlu-C18 diacid])AQ[Aib]AFIEYLLE[Aib]GPSSGEPPPSEG-NH2 [Example 46]	19.6
Y[Aib]QGT[αMePhe(2-F)]TSD[4Pal][αMeS]I[αMeL]LD[Orn]K([AEEA-γGlu-C18 diacid])AQ[Aib][Orn]FI[dE][αMeY]LIEGGPSSGAPEPSEG-NH2 [Example 429]	1.89
H-Y[Aib]QGTFTSDFS[Orn][αMeL]LDKK([AEEA-γGlu-C18 diacid])AQ[αMe4Pal]EFIEYLIE[Aib]GPSSGAPPPSGS-NH2 [Example 879]	20.1
Y[Aib]QGTFTSDFS[Orn][αMeL]LDKK([AEEA-AEEA-γGlu-C18 diacid])AQ[Aib]AFIEYLLE[dA]GPSSGEPPPSGS-NH2 [Example 155]	18.9
Y[Aib]QGTFTSD[4Pal]SQ[αMeL]LD[Orn]K([dE-γGlu-C18 diacid])AQ[αMe4Pal]AFIEYLIA[Aib]GPSSGEPPPSGSEE-NH2 [Example 1101]	6.31
H-Y[Aib]QGTFTSD[4Pal]SR[αMeL]LDKK([γGlu-γGlu-C18 diacid])AQ[αMe4Pal]AFIE[αMe4Pal]LIEGGPSSGAPPPSGS-NH2 [Example 953]	10.9
H-Y[Aib]QGTFTSD[4Pal]SQ[αMeL]LDKK([γGlu-γGlu-C18 diacid])AQ[αMe4Pal]AFIEYLIAGGPSSGAPPPSGSEE-NH2 [Example 960]	14.1
H-Y[Aib]QGT[αMeF]TSD[4Pal][αMeS]I[αMeL]LD[Orn]K([γGlu-γGlu-C18 diacid])AQ[αMe4Pal]EFI[dE][αMeY]LIEGGPSSGEPPPSGSE-NH2 [Example 1173]	0.764
